method: yeast display, Sf9 membrane polyspecificity reagent, FACS + sequencing; frameworks hold sequencing errors
measured_property: polyreactivity (PSR sort gate)

seq=QVQLVESGGGLVQAGGSLRLSCAASGSTFGYYAMGWYRQAPGKERELVAAITKRSGRTYYADSVKGRFTISRDNAKNTVYLQLNSLKPEDTAVYYCAARYTFDRWKFGYWGQGTQVTVSS measured_property="polyreactivity (PSR sort gate)" recorded_result="high polyreactivity"
seq=QVQLVESGGGLVQAGGSLRLSCAASGFTFARNAMGWYRQAPGKERELVASITSGGSTNYADSVKGRFTISRDNAKNTVYLQMNSVKPEDSAVYYCNALWWAPGRPGEEIYRILDYWGQGTQVTVSS measured_property="polyreactivity (PSR sort gate)" recorded_result="low polyreactivity"
seq=QVQLVESGGGLVLAGGSLRLSCAASGFTFFIYVMGWYRQAPGKEREFVAAISSSGDSTYYADSVKGRFTISRDNAKNTVYLQMNSLKPEDTAVYYCNAGDKFSSYWYDYWGQGTQVTVSS measured_property="polyreactivity (PSR sort gate)" recorded_result="low polyreactivity"
seq=QVQLVDSGGGLVQAGGSLRLICAASGLIFYKYAMGWYRQAPGKERELVASISTGGGSTYYADSVKGRFTISRDNAKNTVYLQMNSLQPEDTAVYYCAARWWRRFRGSHSLYDYWGQGTEVTVSS measured_property="polyreactivity (PSR sort gate)" recorded_result="high polyreactivity"
seq=QVQLVETGGGLVQAGGSLRLSCAASGIIFSRYAMGWYRQAPGKERELVAAISTSGGRTFYADSVKGRFTISRDNAKNTVYLQMNSLKPEDTAVYYCAVDDLGWTTGGYLYLYGYWGQGTQVTVSS measured_property="polyreactivity (PSR sort gate)" recorded_result="high polyreactivity"
